Molecular target: T1, ASAP1 SH3 domain (aa. 1083–1147) (mouse, UniProt Q9QWY8 1083-1147)
T1 sequence (looked up): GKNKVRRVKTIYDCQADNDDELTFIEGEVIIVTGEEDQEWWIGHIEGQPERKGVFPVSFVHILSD
Assay: ITC
ATTRIBUTE_MEASURED: Kd

>>> measurement("GIKKPVRRKLKE (peptide, UniProt Q01484 1699-1710, looked up) [12-residue peptide derived from gAnkB (aa. 1699–1710)]")
"~190 nM"

# evaluate next
Name the recorded Kd for IPPDETQSTQKQHKPSLGIKKPVRRKLKEKQKQKEEGLQASAEKAELKKG (domain or fragment, human, UniProt Q01484 1682-1731, looked up) [gAnkB (aa. 1682–1731)] . ~140 nM
